# target.under.test: T1, MPER peptide PDT-081 (HIV-1, biotin at the C-terminus)
# T1 chain: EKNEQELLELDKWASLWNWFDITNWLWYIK
# experiment.notes: ELISA

binder | scale.unit | EC50
PGZL1.H4K3 IgG (antibody, V domains shown) VH: KVQLVQSGAELKKPWSSVRVSCKASGGSFSSYAFNWVRQAPGQRLEWLGGIVPLVSSTNYAQRFRGRVTISADRSTSTVYLEMTGLTSADTAVYFCAREGEGWFGRPLRAFEFWGQGTLVTVST VL: EIVLTQSPGTFALSPGERATLSCRASQSVSGGALAWYQQKAGQAPRLLIYGTSGRATGVPGRFSGSGSETDFSLTISRLEPEDFAVYYCQQYGTSQSTFGQGTRLETR | µg/mL | 0.039
H4K3_5M IgG (antibody, V domains shown) VH: KVQLVQSGAELKKPWSSVRVSCKASGGEPESYAFNWVRQAPGQRLEWLGGIVPLVSSTNYAQRFRGRVTISADPETSTVYLEMTGLTSADTAVYFCAREGEGWFGRPLRAFEFWGQGTLVTVST VL: EIVLTQSPGTFALSPGERATLSCRASQSVSGGALAWYQQKAGQAPRLLIYDTSGRATGVPGRFSGSGSETDFSLTISRLEPEDFAVYYCQQYGTSQSTFGQGTRLETR | µg/mL | 0.083
H4K3_RS73PE IgG (antibody, V domains shown) VH: KVQLVQSGAELKKPWSSVRVSCKASGGSFSSYAFNWVRQAPGQRLEWLGGIVPLVSSTNYAQRFRGRVTISADPETSTVYLEMTGLTSADTAVYFCAREGEGWFGRPLRAFEFWGQGTLVTVST VL: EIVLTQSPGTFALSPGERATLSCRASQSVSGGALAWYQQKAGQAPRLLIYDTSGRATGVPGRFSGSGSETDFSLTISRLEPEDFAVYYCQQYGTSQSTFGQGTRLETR | µg/mL | 0.09
H4K3_SFS28EPE IgG (antibody, V domains shown) VH: KVQLVQSGAELKKPWSSVRVSCKASGGEPESYAFNWVRQAPGQRLEWLGGIVPLVSSTNYAQRFRGRVTISADRSTSTVYLEMTGLTSADTAVYFCAREGEGWFGRPLRAFEFWGQGTLVTVST VL: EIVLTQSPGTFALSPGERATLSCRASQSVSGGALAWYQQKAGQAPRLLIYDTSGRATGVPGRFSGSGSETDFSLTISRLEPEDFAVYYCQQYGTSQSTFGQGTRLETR | µg/mL | 0.076

Data origin: paper PMC6879610
